Provide the reported IC50 of each item.
Target chain: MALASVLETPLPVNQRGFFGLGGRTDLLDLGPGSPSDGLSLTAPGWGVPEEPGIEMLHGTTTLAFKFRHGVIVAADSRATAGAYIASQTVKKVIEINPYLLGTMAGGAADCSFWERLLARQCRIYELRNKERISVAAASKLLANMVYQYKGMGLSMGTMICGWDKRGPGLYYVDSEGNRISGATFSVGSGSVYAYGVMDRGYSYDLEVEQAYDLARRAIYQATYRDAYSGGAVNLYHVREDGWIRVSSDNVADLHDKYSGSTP
Answers are plain numbers, in nM.

Field: example entries. Status: answers known.
| Compound | IC50, nM |
| --- | --- |
| O=C(O[C@@H]1Cc2c(O)cc(O)cc2O[C@@H]1c1cc(O)c(O)c(O)c1)c1ccc(F)c(F)c1 [F-EGCG4] | 650 |
| O=C(O[C@@H]1Cc2c(O)cc(O)cc2O[C@@H]1c1cc(O)c(O)c(O)c1)c1ccccc1F [F-EGCG1] | 1250 |
| O=C(O[C@@H]1Cc2c(O)cc(O)cc2O[C@@H]1c1cc(O)c(O)c(O)c1)c1ccc(F)cc1 [F-EGCG3] | 1900 |

I would be grateful if you could provide IC50 for each of the following entries.
1. O=C(O[C@@H]1Cc2c(O)cc(O)cc2O[C@@H]1c1cc(O)c(O)c(O)c1)c1cc(O)c(O)c(O)c1 [(-)-EGCG, (-)-epigallocatechin-3-gallate, reference compound]
2. O=C(O[C@@H]1Cc2c(O)cc(O)cc2O[C@@H]1c1cc(O)c(O)c(O)c1)c1cccc(F)c1 [F-EGCG2]

680
840

Reference source for all entries: paper PMC2658777
